# experimental.protocol: Cyto-toxicity assay (MTT) in MT2 cells without virus
# Type: cell-based
# details: human
Attribute: viability at 100 nM
reported.metric: viability at 100 nM (%)

INSERT INTO results (structure_as_smiles, reading_unit, reported_value) VALUES
  ('COCCOCCN1CCN(C(=O)[C@]23CC[C@@H](C4(C)CC4)[C@@H]2[C@H]2CC[C@@H]4[C@@]5(C)CC[C@H](OC(=O)[C@H]6C[C@@H](C(=O)O)C6(C)C)C(C)(C)[C@@H]5CC[C@@]4(C)[C@]2(C)CC3)CC1', '%', 79),
  ('CC(C)(CC(=O)O[C@H]1CC[C@]2(C)[C@H]3CC[C@@H]4[C@H]5[C@H](C6(C)CC6)CC[C@]5(C(=O)N5CCOCC5)CC[C@@]4(C)[C@]3(C)CC[C@H]2C1(C)C)C(=O)O', '%', 100),
  ('C=C(C)[C@@H]1CC[C@]2(C(=O)N3CCN(CC)CC3)CC[C@]3(C)[C@H](CC[C@@H]4[C@@]5(C)CC[C@H](OC(=O)[C@H]6[C@@H](CC(=O)O)C6(C)C)C(C)(C)[C@@H]5CC[C@]43C)[C@@H]12', '%', 100),
  ('CC(C)(CC(=O)O[C@H]1CC[C@]2(C)[C@H]3CC[C@@H]4[C@H]5[C@H]([C@@](C)(O)CO)CC[C@]5(C(=O)N[C@@H]5C[C@H](C(=O)N6CCCCC6)C5(C)C)CC[C@@]4(C)[C@]3(C)CC[C@H]2C1(C)C)C(=O)O', '%', 95);

###

# experimental.protocol: Single dose oral pharmacokinetic study in mice
# Assay type: in vivo
# details: mouse, plasma; Oral PK @ 30 mg/ kg dose in mice (Table 6)
Attribute: Tmax
reported.metric: Tmax (h)

INSERT INTO results (structure_as_smiles, reading_unit, reported_value) VALUES
  ('COC1CCN(C(=O)[C@]23CC[C@@H](C4(C)CC4)[C@@H]2[C@H]2CC[C@@H]4[C@@]5(C)CC[C@H](OC(=O)[C@H]6C[C@@H](C(=O)O)C6(C)C)C(C)(C)[C@@H]5CC[C@@]4(C)[C@]2(C)CC3)CC1', 'h', 16),
  ('[2H]C([2H])([2H])C(CC(=O)O[C@H]1CC[C@]2(C)[C@H]3CC[C@@H]4[C@H]5[C@H](C6(C)CC6)CC[C@]5(C(=O)N5CCN(CC)CC5)CC[C@@]4(C)[C@]3(C)CC[C@H]2C1(C)C)(C(=O)O)C([2H])([2H])[2H]', 'h', 3.5),
  ('[2H]C([2H])([2H])C(CC(=O)O[C@H]1CC[C@]2(C)[C@H]3CC[C@@H]4[C@H]5[C@H](C(=C)C)CC[C@]5(C(=O)N5CCN(CC)CC5)CC[C@@]4(C)[C@]3(C)CC[C@H]2C1(C)C)(C(=O)O)C([2H])([2H])[2H]', 'h', 4.5),
  ('CC(C)(CC(=O)O[C@H]1CC[C@]2(C)[C@H]3CC[C@@H]4[C@H]5[C@H](C6(C)CC6)CC[C@]5(C(=O)N5CCN(CCN6CCOCC6)CC5)CC[C@@]4(C)[C@]3(C)CC[C@H]2C1(C)C)C(=O)O', 'h', 6.5);

###

# experimental.protocol: Single dose oral pharmacokinetic study in mice
# Format: in vivo
# details: mouse, plasma; Mice oral PK @30 mg/kg (Table 4); read-out: AUC 0-t
reported.metric: AUC(0-t) (µg·h/mL)

INSERT INTO measurements (structure_as_smiles, reported_metric, reported_value) VALUES
  ('C=C(C)[C@@H]1CC[C@]2(C(=O)O)CC[C@]3(C)[C@H](CC[C@@H]4[C@@]5(C)CC[C@H](OC(=O)[C@H]6[C@@H](CC(=O)O)C6(C)C)C(C)(C)[C@@H]5CC[C@]43C)[C@@H]12', 'AUC(0-t)', 35.9),
  ('CC(C)(CC(=O)O[C@H]1CC[C@]2(C)[C@H]3CC[C@@H]4[C@H]5[C@H](C6(C)CC6)CC[C@]5(C(=O)N[C@@H]5C[C@H](C(=O)N6CCCCC6)C5(C)C)CC[C@@]4(C)[C@]3(C)CC[C@H]2C1(C)C)C(=O)O', 'AUC(0-t)', 138),
  ('C=C(C)[C@@H]1CC[C@]2(C(=O)N[C@@H]3C[C@H](c4nnc(C)o4)C3(C)C)CC[C@]3(C)[C@H](CC[C@@H]4[C@@]5(C)CC[C@H](OC(=O)CC(C)(C)C(=O)O)C(C)(C)[C@@H]5CC[C@]43C)[C@@H]12', 'AUC(0-t)', 115);

###

# experimental.protocol: Cyto-toxicity assay (MTT) in MT2 cells without virus
# Type: cell-based
# details: human
reported.metric: viability at 100 nM (%)

INSERT INTO measurements (molecule, reported_metric, reading_unit, reported_value) VALUES
  ('CC1([C@@H]2CC[C@]3(C(=O)N4CCN(CCCN5CCOCC5)CC4)CC[C@]4(C)[C@H](CC[C@@H]5[C@@]6(C)CC[C@H](OC(=O)[C@H]7C[C@@H](C(=O)O)C7(C)C)C(C)(C)[C@@H]6CC[C@]54C)[C@@H]23)CC1 [Example 34]', 'viability at 100 nM', '%', 100),
  ('C=C(C)[C@@H]1CC[C@]2(C(=O)N[C@@H]3C[C@H](c4nnc(CC(C)C)o4)C3(C)C)CC[C@]3(C)[C@H](CC[C@@H]4[C@@]5(C)CC[C@H](OC(=O)CC(C)(C)C(=O)O)C(C)(C)[C@@H]5CC[C@]43C)[C@@H]12 [Example 16]', 'viability at 100 nM', '%', 81);

###

# experimental.protocol: Single dose oral pharmacokinetic study in mice
# Assay type: in vivo
# details: mouse, plasma; Mice oral PK @30 mg/kg (Table 5)
reported.metric: Cmax (ng/mL)

INSERT INTO assay_data (structure_as_smiles, reported_metric, reading_unit, reported_value) VALUES
  ('C=C(C)[C@@H]1CC[C@]2(C(=O)N[C@@H]3C[C@H](C(=O)N4CCCCC4)C3(C)C)CC[C@]3(C)[C@H](CC[C@@H]4[C@@]5(C)CC[C@H](OC(=O)[C@H]6[C@@H](CC(=O)O)C6(C)C)C(C)(C)[C@@H]5CC[C@]43C)[C@@H]12', 'Cmax', 'ng/mL', 4230),
  ('CCN1CCN(C(=O)[C@]23CC[C@@H](C4(C)CC4)[C@@H]2[C@H]2CC[C@@H]4[C@@]5(C)CC[C@H](OC(=O)CC(C)(C)C(=O)O)C(C)(C)[C@@H]5CC[C@@]4(C)[C@]2(C)CC3)CC1', 'Cmax', 'ng/mL', 8160),
  ('Cc1nnc([C@H]2C[C@@H](NC(=O)[C@]34CC[C@@H](C5(C)CC5)[C@@H]3[C@H]3CC[C@@H]5[C@@]6(C)CC[C@H](OC(=O)[C@H]7C[C@@H](C(=O)O)C7(C)C)C(C)(C)[C@@H]6CC[C@@]5(C)[C@]3(C)CC4)C2(C)C)o1', 'Cmax', 'ng/mL', 5940),
  ('CC(C)(CC(=O)O[C@H]1CC[C@]2(C)[C@H]3CC[C@@H]4[C@H]5[C@H]([C@]6(C)CO6)CC[C@]5(C(=O)N[C@@H]5C[C@H](C(=O)N6CCCCC6)C5(C)C)CC[C@@]4(C)[C@]3(C)CC[C@H]2C1(C)C)C(=O)O', 'Cmax', 'ng/mL', 4450),
  ('CC(C)(CC(=O)O[C@H]1CC[C@]2(C)[C@H]3CC[C@@H]4[C@H]5[C@H]([C@@](C)(O)CO)CC[C@]5(C(=O)N[C@@H]5C[C@H](C(=O)N6CCCCC6)C5(C)C)CC[C@@]4(C)[C@]3(C)CC[C@H]2C1(C)C)C(=O)O', 'Cmax', 'ng/mL', 3780),
  ('CCN1CCN(C(=O)[C@]23CC[C@@H](C4(C)CC4)[C@@H]2[C@H]2CC[C@@H]4[C@@]5(C)CC[C@H](OC(=O)[C@H]6C[C@@H](C(=O)O)C6(C)C)C(C)(C)[C@@H]5CC[C@@]4(C)[C@]2(C)CC3)CC1', 'Cmax', 'ng/mL', 12000);

###

# experimental.protocol: Cyto-toxicity assay (MTT) in MT2 cells without virus
# Assay type: cell-based
# details: human
Rule: viability at 100 nM below 80% gives MET, anything at or above gives NOT MET.

INSERT INTO measurements (structure_as_smiles, group_label) VALUES
  ('C=C(C)[C@@H]1CC[C@]2(c3nnc(-c4ccccc4)o3)CC[C@]3(C)[C@H](CC[C@@H]4[C@@]5(C)CC[C@H](OC(=O)[C@H]6[C@@H](CC(=O)O)C6(C)C)C(C)(C)[C@@H]5CC[C@]43C)[C@@H]12', 'NOT MET'),
  ('CC(C)(CC(=O)O[C@H]1CC[C@]2(C)[C@H]3CC[C@@H]4[C@H]5[C@H](C6(C)CC6)CC[C@]5(C(=O)N5CCC(OCCN6CCOCC6)CC5)CC[C@@]4(C)[C@]3(C)CC[C@H]2C1(C)C)C(=O)O', 'NOT MET'),
  ('COCCOC1CCN(C(=O)[C@]23CC[C@@H](C4(C)CC4)[C@@H]2[C@H]2CC[C@@H]4[C@@]5(C)CC[C@H](OC(=O)CC(C)(C)C(=O)O)C(C)(C)[C@@H]5CC[C@@]4(C)[C@]2(C)CC3)CC1', 'NOT MET'),
  ('CC1([C@@H]2CC[C@]3(C(=O)N4CCC(OCCN5CCOCC5)CC4)CC[C@]4(C)[C@H](CC[C@@H]5[C@@]6(C)CC[C@H](OC(=O)[C@H]7C[C@@H](C(=O)O)C7(C)C)C(C)(C)[C@@H]6CC[C@]54C)[C@@H]23)CC1', 'NOT MET'),
  ('C=C(C)[C@@H]1CC[C@]2(C(=O)O)CC[C@]3(C)[C@H](CC[C@@H]4[C@@]5(C)CC[C@H](OC(=O)[C@H]6[C@@H](CC(=O)O)C6(C)C)C(C)(C)[C@@H]5CC[C@]43C)[C@@H]12', 'NOT MET'),
  ('CC(CO)(CO)C(=O)N1CCN(C(=O)[C@]23CC[C@@H](C4(C)CC4)[C@@H]2[C@H]2CC[C@@H]4[C@@]5(C)CC[C@H](OC(=O)[C@H]6C[C@@H](C(=O)O)C6(C)C)C(C)(C)[C@@H]5CC[C@@]4(C)[C@]2(C)CC3)CC1', 'MET');
